Test protocol: Comparative bioavailability after oral administration to rats (plasma LC-MS-MS)
Assay type: in vivo
Measurement setup: male, Sprague Dawley, rat, plasma, po, 10 mg tapentadol free base equiv/kg, oral tapentadol valine carbamate 10 mg tapentadol free base equiv/kg, individual animals 6-10, read-out: t½ of tapentadol valine carbamate (converted)
Measured endpoint: half-life

{"Molecule": "CC[C@H](c1cccc(OC(=O)N[C@H](C(=O)O)C(C)C)c1)[C@H](C)CN(C)C (racemic) [Tapentadol valine carbamate]", "Measured endpoint": "half-life", "Result": "4.08 h"}

---

Test protocol: Comparative bioavailability after oral or intravenous administration to monkeys (plasma LC-MS-MS)
Assay type: in vivo, cynomolgus monkey
Measurement setup: male, cynomolgus monkey, plasma, iv, 0.5 mg tapentadol free base equiv/kg, male monkey, i.v. tapentadol valine carbamate 0.5 mg tapentadol free base equiv/kg, 0.5 h; mean
Measured endpoint: concentration at 0.5 h (ng/mL)

{"Molecule": "CC[C@H](c1cccc(OC(=O)N[C@H](C(=O)O)C(C)C)c1)[C@H](C)CN(C)C (racemic) [Tapentadol valine carbamate]", "Result number": 471}

---

Test protocol: Comparative bioavailability after oral or intravenous administration to monkeys (plasma LC-MS-MS)
Type: in vivo, cynomolgus monkey
Measurement setup: male, cynomolgus monkey, plasma, iv, 0.5 mg tapentadol free base equiv/kg, male monkey, i.v. tapentadol valine carbamate 0.5 mg tapentadol free base equiv/kg, 6 h; mean

{"Compound": "CC[C@H](c1cccc(OC(=O)N[C@H](C(=O)O)C(C)C)c1)[C@H](C)CN(C)C (racemic) [Tapentadol valine carbamate]", "Unit": "ng/mL", "concentration at 6 h": 4.39}

---

Test protocol: Comparative in vivo bioavailability study in the dog (oral gavage, plasma LC-MS-MS)
Measurement setup: Beagle, plasma, po, 0.8 mg/kg, oral tapentadol valine carbamate 0.8 mg tapentadol base equiv/kg, individual dogs 1-5, read-out: AUCt of tapentadol
Description: Test substances (i.e., tapentadol (1 mg/kg) and tapentadol valine carbamate (0.8 mg tapentadol base equivalents/kg)) were administered by oral gavage to a group of five dogs (dog nos. 1, 2, 3, 4 and 5) in a two-way crossover design. […] Blood samples were taken at various times after administration and submitted to analysis for the parent drug and pro-drug using a validated LC-MS-MS assay. Pharmacokinetic parameters derived from the plasma analytical data were determined using Win Nonlin.
Measured endpoint: AUC(0-t)

{"Compound": "CC[C@@H](c1cccc(O)c1)[C@@H](C)CN(C)C (racemic) [Tapentadol]", "Measured endpoint": "AUC(0-t)", "Result": "29.5 ng·h/mL"}

---

Test protocol: Comparative bioavailability after oral or intravenous administration to monkeys (plasma LC-MS-MS)
Format: in vivo, cynomolgus monkey
Measurement setup: male, cynomolgus monkey, plasma, po, 1 mg tapentadol free base equiv/kg, male monkey, oral tapentadol valine carbamate 1 mg tapentadol free base equiv/kg; mean; read-out: AUCt of tapentadol valine carbamate
Measured endpoint: AUC(0-t)

{"Compound": "CC[C@H](c1cccc(OC(=O)N[C@H](C(=O)O)C(C)C)c1)[C@H](C)CN(C)C (racemic) [Tapentadol valine carbamate]", "Measured endpoint": "AUC(0-t)", "Result": "309 ng·h/mL"}

---

Test protocol: Comparative bioavailability after oral or intravenous administration to monkeys (plasma LC-MS-MS)
Assay type: in vivo, cynomolgus monkey
Measurement setup: cynomolgus monkey, plasma, iv; male monkey, i.v. tapentadol valine carbamate 0.5 mg tapentadol free base equiv/kg, 6 h; individual animals 1-5

{"Compound": "CC[C@H](c1cccc(OC(=O)N[C@H](C(=O)O)C(C)C)c1)[C@H](C)CN(C)C (racemic) [Tapentadol valine carbamate]", "concentration at 6 h (ng/mL)": 3.21}
